TARGET_DESC: T1, mesothelin (soluble, recombinant) (UniProt Q13421 296-580, limits assumed)
T1 construct: also called MSLN; soluble MSLN
METHOD_SUMMARY: Octet BLI, bsAb captured on AHC biosensors, mesothelin 0-200 nM, 1:1 model
RECORDED_METRIC: koff (s⁻¹)
A number alone suffices; assume s⁻¹.

Solved cases (2 shown):
[
  {
    "BINDER": "MSLN-39-[L]-scFv^CD3 bsAb (bispecific antibody, V domains shown) VH: QVQLQESGPGLVKPSETLSLTCTVSGGSVSSFTDTWSWIRQPPGKGLEWIGYIYYSGSTNYNPSLKSRVTISVDTSKNQFSLKLSSVTAADTAVYYCAREDALTGFDIWGQGTMVTVSS VL: DIQMTQSPSSLSASVGDRVTITCRASQSSRYYVNWYQQKPGKAPKLLIYAASSLQSGVPSRFSGSGSGTDFTLTISSLQPEDFATYYCQQSYDASYTFGGGTKVEIK",
    "koff [s⁻¹]": "4.05e-07"
  },
  {
    "BINDER": "MSLN-30-[L]-scFv^CD3 bsAb (bispecific antibody, V domains shown) VH: QVQLQESGPGLVKPSETLSLTCTVSGGSVSSRDDLWSWIRQPPGKGLEWIGYIYYSGSTNYNPSLKSRVTISVDTSKNQFSLKLSSVTAADTAVYYCARDFVLSGFDIWGQGTMVTVSS VL: DIQMTQSPSSLSASVGDRVTITCRASQSISSYLNWYQQKPGKAPKLLIYAASSLQSGVPSRFSGSGSGTDFTLTISSLQPEDFATYYCQQPYDASYTFGGGTKVEIK",
    "koff [s⁻¹]": "2.44e-07"
  }
]

With those in mind, consider the next binder.
input: Requested read-out: koff. Entry: HP4-44-[L]-scFv^CD3 bsAb (bispecific antibody, V domains shown) VH: QVQLQESGPGLVKPSETLSLTCTVSGGSVSSGSYYWSWIRQPPGKGLEWIGYIYYSGSTNYNPSLKSRVTISVDTSKNQFSLKLSSVTAADTAVYYCAREDVLSGFDIWGQGTMVTVSS VL: DIQMTQSPSSLSASVGDRVTITCRASQSISSYLNWYQQKPGKAPKLLIYAASSLQSGVPSRFSGSGSGTDFTLTISSLQPEDFATYYCQQSYDAFYTFGGGTKVEIK
output: 0.000809
